From: ChEMBL document CHEMBL3217747

assay: Plasma concentration in mouse at 32 mg/kg, sc after 4 hrs; type: ADME, organism-based; parameters: dose 32 mg/kg, route subcutaneous
assay readout: concentration at 4 h (µM)
One number for each entry, in µM.

What value of concentration at 4 h has been recorded for this entry: CCC[C@@H](C)CN1CCC(c2cccc(O)c2)(c2ncc(C(=O)N(CC)CC)cn2)CC1
7.5

* * *

List of pKi tested on Kappa-type opioid receptor (Homo sapiens).
Sequence (P41145 whole entry): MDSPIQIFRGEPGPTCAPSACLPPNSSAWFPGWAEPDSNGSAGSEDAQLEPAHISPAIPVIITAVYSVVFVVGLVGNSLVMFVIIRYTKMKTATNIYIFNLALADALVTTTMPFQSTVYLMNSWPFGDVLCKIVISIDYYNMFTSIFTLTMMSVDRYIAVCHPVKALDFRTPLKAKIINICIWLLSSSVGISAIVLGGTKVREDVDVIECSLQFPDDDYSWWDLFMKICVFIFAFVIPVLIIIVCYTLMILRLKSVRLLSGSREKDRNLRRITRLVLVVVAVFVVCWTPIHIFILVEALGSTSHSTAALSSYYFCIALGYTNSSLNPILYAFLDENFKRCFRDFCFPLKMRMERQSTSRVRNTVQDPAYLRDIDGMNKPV
Give bare numbers, as −log10 of the molar value.

Dear colleague, could you send me pKi for each of the items below? Thanks.
1. CCC[C@@H](C)CN1CCC(c2cccc(O)c2)(c2ncc(C(=O)N(CC)CC)cn2)CC1
2. CCCC(C)CN1CCC(c2cccc(C(N)=O)c2)(c2ncc(C(=O)N(CC)CC)cn2)CC1 (stereo not drawn)

1. 6.85
2. 7.19
